System: Rattus norvegicus
assay summary: Cardiotoxicity in Sprague-Dawley rat electrophysiology model assessed as QRS complex abnormalities at 10 mg/kg, iv by ECG analysis
Format: toxicity, organism-based
Design: dose 10 mg/kg, route intravenous
condition set: in vivo
observation type: Activity

Recorded results for 5 compounds are shown here.
Data request: Name the reported Activity value associated with the compound `CC[C@H](C[C@H](O)[C@@H](N)CN1CC(=O)N(c2ccccc2Cl)CC1(C)C)C(=O)Nc1ccc(F)cc1.O=C(O)/C=C/C(=O)O`
Data returned: Toxic

Data request: Any idea what Activity was measured for `CC[C@H](C[C@H](O)[C@@H](N)CN1CC(=O)N(c2ccccc2Cl)CC1(C)C)C(=O)Nc1ccc(F)cn1.O=C(O)/C=C/C(=O)O` ?
Data returned: Toxic

Data request: Name the reported Activity value associated with the compound `CCCCNC(=O)[C@@H](C[C@H](O)[C@@H](N)CN1CC(=O)N(c2ccccc2Cl)CC1(C)C)C(C)C.O=C(O)/C=C/C(=O)O`
Data returned: Toxic

Data request: Find the recorded Activity belonging to `CC(C)[C@H](C[C@H](O)[C@@H](N)CN1CC(=O)N(c2ccccc2Cl)CC1(C)C)C(=O)NC12CC3CC(CC(O)(C3)C1)C2.O=C(O)/C=C/C(=O)O` and report it.
Data returned: Toxic

Data request: Need Activity, item `CC[C@H](C[C@H](O)[C@@H](N)CN1CC(=O)N(c2ccccc2Cl)CC1(C)C)C(=O)NCC1(CO)CCCC1.O=C(O)/C=C/C(=O)O`
Data returned: Toxic

Continuing:
Data request: Look up Activity: `CC[C@H](C[C@H](O)[C@@H](N)CN1CC(=O)N(c2ccccc2Cl)CC1(C)C)C(=O)Nc1ncccc1C.O=C(O)/C=C/C(=O)O`
Data returned: Toxic

Data request: Could you tell me which Activity is on file for `CC(C)CNC(=O)C(C)(C)C[C@H](O)[C@@H](N)CN1CC(=O)N(c2cc(F)ccc2Cl)CC1(C)C.O=C(O)/C=C/C(=O)O` ?
Data returned: Toxic

Data request: Give its Activity value. Item: `CC(C)[C@H](C[C@H](O)[C@@H](N)CN1CC(=O)N(c2ccccc2Cl)CC1(C)C)C(=O)Nc1ccc(F)cc1F.O=C(O)/C=C/C(=O)O`
Data returned: Toxic
